Source listed as PubChem BioAssay (EPA / NIEHS).

assay.summary: ATG_NF_kB_CIS: Attagene CIS-FACTORIAL HepG2 Assay for human Nuclear Factor Kappa B (NF-kB) (AID 2282991)
conditions: HepG2 Attagene cis-factorial NF-kB reporter mRNA; actives raise or lower the signal
The source made the active and inactive calls. Rule for the calls: active = hit-call score of the fitted dose curve at least 0.9, where 1 is the maximum; inactive = score below 0.9.
Choose the fitting class; nothing outside active, inactive is accepted.

(Q) Fill in: this test's call for CCCCOC(=O)c1ccccc1 is ___
(A) inactive

(Q) What did this assay record as the result for NCC(F)(F)C(F)(F)C(F)(F)C(F)(F)F ?
(A) inactive

(Q) Hi, sorry to bother you, what did the test record for CCCCCCCCCCCCCCO ?
(A) inactive

(Q) Per the records of this test, what outcome belongs to FC(F)(F)C(F)(F)C(F)(F)C(F)(F)C(F)(F)C(F)(F)I ?
(A) inactive

* * *

assay.summary: ATG_PXRE_CIS: Attagene CIS-FACTORIAL HepG2 Assay for human Pregnane X Receptor Element (PXRE) (AID 2282957)
conditions: HepG2 Attagene CIS-FACTORIAL PXRE reporter, mRNA; actives raise or lower the signal
Active and inactive are the calls of the source. How the source made its calls: active means hit-call score of the fitted dose curve at least 0.9, where 1 is the maximum; inactive means score below 0.9.
The reply should be one of these categories: 1 (yes) = active, 0 (no) = inactive

>>> label("O=C(O)c1cccc(C[C@@H]2COc3ccc(OCc4nc5cc(F)ccc5s4)cc3[C@@H]2O)c1")
"0 (no)"
>>> label("O=C1CN(N=Cc2ccc([N+](=O)[O-])o2)C(=O)N1")
"0 (no)"
>>> label("CNC(C)=O")
"1 (yes)"

(Q) Which outcome did this test record for the compound CCCCCCCCCCCCCCCCOS(=O)(=O)O ?
(A) 0 (no)

(Q) Tell me the recorded outcome of this test for OCC(CO)(CO)CO .
(A) 0 (no)

(Q) Tell me the recorded outcome of this test for NC(=O)NN=Cc1ccc([N+](=O)[O-])o1 .
(A) 0 (no)

(Q) Called result for O=C(O)[C@H](O)[C@@H](O)C(=O)O
(A) 0 (no)

(Q) Query: recorded result category for O=C(O)CO in this test
(A) 0 (no)

(Q) Fill in: this test's call for NNC(=O)c1ccncc1 is ___
(A) 0 (no)

(Q) Which result was noted for this compound in the test: CCCCCCCCCCCCCCO
(A) 1 (yes)

(Q) # fetch the recorded call for O=S(=O)(O)c1ccc(N=Nc2c(O)ccc3cc(S(=O)(=O)O)ccc23)cc1 here
(A) 0 (no)

(Q) # outcome recorded in this test, key = NC(=O)N1c2ccccc2C=Cc2ccccc21
(A) 1 (yes)

(Q) Hi, sorry to bother you, what did the test record for O=S(=O)(O)CCC(F)(F)C(F)(F)C(F)(F)C(F)(F)C(F)(F)C(F)(F)F ?
(A) 0 (no)

(Q) Returns: the outcome recorded for NC(=O)N(O)[C@@H]1COc2cc(OCc3ccccc3)ccc21 in this assay.
(A) 0 (no)

(Q) Returns: the outcome recorded for CC(C)c1nnc2ccc(-c3ocnc3-c3cc(F)ccc3F)cn12 in this assay.
(A) 1 (yes)

* * *

assay.summary: Tanguay_ZF_120hpf_TR_legacy: (Legacy) Oregon State University Tanguay Lab 120 Hour Post-fertilization zebrafish Assay for Touch Response (AID 2283667)
Records with an inconclusive call do not appear. Calls of active or inactive are those of the source. How the source made its calls: active means hit-call score of the fitted dose curve at least 0.9, where 1 is the maximum; inconclusive means response in the unintended direction; inactive means score below 0.9.
readout.name: outcome

>>> reported_value("c1ccc2cc3ccccc3cc2c1")
"inactive"
>>> reported_value("COCc1nnc(-c2ccc[n+]([O-])c2)n1-c1c(Cl)c(Cl)cc2[nH]c(=O)c(=O)[nH]c12")
"inactive"
>>> reported_value("CCc1ccc(O)c(C(C)(C)C)c1")
"inactive"

* * *

assay.summary: BSK_SAg_Proliferation: Cell Proliferation Assessment in the BioMAP Diversity Plus: SAg Assay (AID 2283095);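 note: relative cell number as total protein by SRB absorbance in sub-confluent culture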
conditions: primary human HUVEC with PBMC
Active and inactive are the calls of the source. How the source made its calls: active means hit-call score of the fitted dose curve at least 0.9, where 1 is the maximum; inactive means score below 0.9.
Field 'call' accepts active, inactive

Look over these answered cases.
>>> label("Cc1nccn1-c1ccc(Sc2cccc(C3(C(N)=O)CCOCC3)c2)cc1")
"active"
>>> label("CCc1ccc(O)c(C(C)(C)C)c1")
"active"
>>> label("O=C(O)c1cccc(C(=O)O)c1")
"inactive"

(Q) What is the recorded call for this molecule in the test? NC(=O)N1c2ccccc2C=Cc2ccccc21
(A) inactive

(Q) State the result this test recorded for CCc1cccc(CC)c1N .
(A) inactive

(Q) # fetch the recorded call for CCCCCCCCN(C)C here
(A) inactive

(Q) Check the results log: what was the call for Cc1nc(-c2ccccn2)ncc1C(=O)Nn1cc(C)c2cc(F)ccc21 ?
(A) active

(Q) Assay outcome for OCC(CO)(CO)CO : what was it?
(A) inactive

(Q) Give the logged outcome of this assay for the following molecule: OC(O)(C(F)C(O)(O)C(F)(F)F)C(F)(F)F
(A) active

(Q) // return assay outcome for Cc1ncc([C@@H](CCCCCCc2ccc3c(n2)NCCC3)CC(=O)O)cn1
(A) inactive

(Q) For this molecule, state the assay outcome: Cc1cccc(O)c1C
(A) inactive

(Q) For this molecule, state the assay outcome: NC(=O)NN=Cc1ccc([N+](=O)[O-])o1
(A) active

(Q) I'd appreciate the recorded outcome for CC(C)C(=O)Nc1ccc([N+](=O)[O-])c(C(F)(F)F)c1 from this test.
(A) inactive

(Q) What did this assay record as the result for CCCCOC(=O)c1ccccc1 ?
(A) inactive

(Q) Call for entry CCOc1ccc2[nH]cc(C(=O)NCc3ccccc3)c(=O)c2n1 :
(A) inactive

(Q) What did the test return for COCc1nnc(-c2ccc[n+]([O-])c2)n1-c1c(Cl)c(Cl)cc2[nH]c(=O)c(=O)[nH]c12 ?
(A) inactive

* * *

Read-out: Nuclear factor erythroid 2-related factor 2 (Homo sapiens)
assay.summary: LTEA_HepaRG_NFE2L2: Life Technologies and Expression Analysis (LTEA) Assay for Nuclear factor erythroid 2-related factor 2 (NFE2L2) Transcription Factor using HepaRG (AID 2283527);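 note: TaqMan qRT-PCR transcript level normalised to ACTB GAPDH and POLR2A housekeeping genes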
conditions: mRNA level, 48 h; actives raise or lower the signal
Experimental: LTEA_HepaRG is a cell based, multiplexed-readout assay that uses HepaRG, a human liver cell line, with measurements taken at 48 hours after chemical dosing on a 96-well plate.LTEA_HepaRG_NFE2L2 is one of 102 assay component(s) measured in the LTEA HepaRG cell culture assay. It is a marker of Inflammation/injury.Data from the assay component LTEA_HepaRG_NFE2L2 was analyzed into 1 endpoint. […]
Activity calls are given as the source filed them. The calls were made as follows: active = hit-call score of the fitted dose curve at least 0.9, where 1 is the maximum; inactive = score below 0.9.
readout.name: outcome

>>> reported_value("CCCCC(CC)C(=O)OCCOCCOCCOC(=O)C(CC)CCCC (stereo not drawn)")
"inactive"
>>> reported_value("CCCCCCCCCC")
"inactive"
>>> reported_value("O=S(=O)(O)c1ccc(N=Nc2c(O)ccc3cc(S(=O)(=O)O)ccc23)cc1")
"inactive"

* * *

assay.summary: APR_HepG2_MicrotubuleCSK_24hr: Apredica 24-hour HepG2 Assay for Microtubule CSK Stabilty (AID 2282909)
conditions: HepG2 microtubule cytoskeleton imaging, actives raise or lower the signal
Active and inactive are the calls of the source. The calls were made as follows: active = hit-call score of the fitted dose curve at least 0.9, where 1 is the maximum; inactive = score below 0.9.
readout.name: outcome

>>> reported_value("CCCCCCCCCC")
"inactive"
>>> reported_value("Cc1nccn1-c1ccc(Sc2cccc(C3(C(N)=O)CCOCC3)c2)cc1")
"inactive"
>>> reported_value("COCc1nnc(-c2ccc[n+]([O-])c2)n1-c1c(Cl)c(Cl)cc2[nH]c(=O)c(=O)[nH]c12")
"inactive"

* * *

system.tested: human RAR-related Orphan Receptor gamma (RORg), RORC (gene 6097) (UniProt P51449)
Sequence (P51449 whole entry, looked up): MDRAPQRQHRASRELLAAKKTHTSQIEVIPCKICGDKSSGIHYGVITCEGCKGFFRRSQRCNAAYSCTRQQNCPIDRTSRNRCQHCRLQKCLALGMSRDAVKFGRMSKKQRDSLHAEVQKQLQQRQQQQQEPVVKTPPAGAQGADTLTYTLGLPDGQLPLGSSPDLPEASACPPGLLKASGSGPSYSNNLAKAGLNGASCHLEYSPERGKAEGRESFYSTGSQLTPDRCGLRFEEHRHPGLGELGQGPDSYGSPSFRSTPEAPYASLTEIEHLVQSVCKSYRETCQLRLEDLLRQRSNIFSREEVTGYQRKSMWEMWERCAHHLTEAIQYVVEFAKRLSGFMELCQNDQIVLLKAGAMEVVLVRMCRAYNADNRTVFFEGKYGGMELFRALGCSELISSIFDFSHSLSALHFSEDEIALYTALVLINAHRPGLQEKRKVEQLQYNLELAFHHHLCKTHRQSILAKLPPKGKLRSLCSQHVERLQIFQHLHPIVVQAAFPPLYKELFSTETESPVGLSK
assay.summary: ATG_RORg_TRANS: Attagene TRANS-FACTORIAL HepG2 Assay for human RAR-related Orphan Receptor gamma (RORg) (AID 2283011)
Results filed as inconclusive are left out. Active and inactive are the calls of the source. The calls were made as follows: active = hit-call score of the fitted dose curve at least 0.9, where 1 is the maximum; inconclusive = response in the unintended direction; inactive = score below 0.9.
readout.name: outcome

>>> reported_value("NC(=O)NN=Cc1ccc([N+](=O)[O-])o1")
"inactive"
>>> reported_value("c1ccc2ncccc2c1")
"inactive"
>>> reported_value("CCOC(N)=O")
"inactive"
>>> reported_value("FC(F)(F)COC(OCC(F)(F)F)OCC(F)(F)F")
"inactive"

We next turn to a different compound, shown below.
(Q) For the compound shown here, CCN(CC)C(=S)SSC(=S)N(CC)CC , give the reported outcome.
(A) inactive

* * *

Read-out: Bcl-2 (BAD) gene, BAD (gene 572)
assay.summary: LTEA_HepaRG_BAD: Life Technologies and Expression Analysis (LTEA) Assay for Bcl-2 (BAD) gene using HepaRG (AID 2283469)
conditions: mRNA level, 48 h; actives raise or lower the signal
The source made the active and inactive calls. How the source made its calls: active means hit-call score of the fitted dose curve at least 0.9, where 1 is the maximum; inactive means score below 0.9.
Can you answer with just one of these options? active, inactive

(Q) Which outcome was assigned to CCCCN1C(=O)[C@@H]([C@H](O)C2CCCCC2)NC(=O)C12CCN(Cc1ccc(Oc3ccc(C(=O)O)cc3)cc1)CC2 in this test?
(A) active

(Q) Please share the test call associated with NC(=O)N1c2ccccc2C=Cc2ccccc21 .
(A) inactive

(Q) Field: outcome | Entry: c1ccc(C(O[C@@H]2CCCN(CCc3ccc4c(c3)OCO4)C2)c2ccccc2)cc1
(A) inactive
